# SYSTEM: Peroxisome proliferator-activated receptor gamma (Homo sapiens)
# TEST DETAILS: qHTS assay to identify small molecule antagonists of the peroxisome proliferator-activated receptor gamma (PPARg) signaling pathway (AID 743191); note: nearly all actives have a fitted effect of over 30% in size
# CONDITION INFO: HEK293H PPARg-UAS-bla, beta-lactamase ratio, antagonist, 17 h; series mostly up to 62.6 µM
Results filed as inconclusive are left out. Active and inactive are the calls of the source. Calls come from the whole dose curve.
OBSERVED PROPERTY: outcome

Some compounds with recorded outcome:
> print(dat)
                                   compound  measured
1                               OCCc1ccccc1  inactive
2  O=C(O)c1cc(N=Nc2ccc(S(=O)(=O)Nc3ccccn3)cc2)ccc1O  inactive
3  CCCCC(CC)COC(=O)/C=C/c1ccc(OC)cc1 (stereo not given)  inactive
4                             Cn1cc[nH]c1=S  inactive

Attention now shifts to the item below.
### Prompt // Input: CCCNC(=O)NS(=O)(=O)c1ccc(Cl)cc1 . Output its outcome only.
### Response inactive

###

# TEST DETAILS: A CellTox Green Cytotoxicity Assay to monitor cytotoxicity in HepG2 cells - 40 hour (AID 1224879); note: nearly all actives have a fitted effect of over 40% in size
# CONDITION INFO: CellTox Green fluorescence; series mostly up to 76.8 µM
Records with an inconclusive call do not appear. Calls of active or inactive are those of the source. Calls follow the shape of the dose curve; as a rule, active = well fitted activation curve with a large enough effect in the repeat runs; inconclusive = weak or mixed curves; inactive = flat fitted curve, though single readings scatter.
OBSERVED PROPERTY: outcome

In the examples that follow, each entry is paired with its recorded outcome.
> print(dat)
                                   molecule  measured
1  O=C(O)c1[nH]n(-c2ccc(S(=O)(=O)O)cc2)c(=O)c1N=Nc1ccc(S(=O)(=O)O)cc1  inactive
2  CC(C)(Oc1ccc(C2CC2(Cl)Cl)cc1)C(=O)O (stereo unspecified)  inactive
3           Nc1ccc(S(=O)(=O)c2ccc(N)cc2)cc1  inactive
4  CCCCC(CC)COC(=O)/C=C/c1ccc(OC)cc1 (stereo unspecified)  inactive
5                           NNC(=O)c1ccncc1  inactive
6       Nc1ccn([C@H]2CC[C@@H](CO)O2)c(=O)n1  inactive
7                                      O=NO  inactive
8                           CCCC(CCC)C(=O)O  inactive

### Prompt Please look at this molecule and report its outcome: O=C1CN(/N=C/c2ccc([N+](=O)[O-])o2)C(=O)N1
### Response inactive

### Prompt State its outcome for this molecule: Cc1ccc(C)c(OCCCC(C)(C)C(=O)O)c1
### Response inactive

### Prompt Please list outcome recorded for the molecule Cc1ccc(S(=O)(=O)NC(=O)NN2CCCCCC2)cc1
### Response inactive

###

# TEST DETAILS: qHTS assay to identify small molecule agonists of the estrogen receptor beta (ER-beta) signaling pathway - cell viability counter screen (AID 1259380); note: nearly all actives have a fitted effect of over 30% in size
# CONDITION INFO: ER-beta-bla HEK293T viability, CellTiter-Glo luminescence, 16 h; series mostly up to 92.4 µM
Inconclusive results are not listed. Active and inactive are the calls of the source. The call rests on the fitted dose curve; in most records, active means well fitted cell-killing curve with a large enough effect in the repeat runs; inconclusive means weak or mixed curves, or effect the other way; inactive means flat fitted curve, though single readings scatter.
Reply using exactly one outcome from T = active, F = inactive

> print(dat)
                                   molecule  cat
1  NC(=O)NC1NC(=O)NC1=O (centres undefined)    F
2                  Cc1cc(=O)n(-c2ccccc2)n1C    F
3  Cc1ccccc1C(OCCN(C)C)c1ccccc1 (centres undefined)    T
4                                      O=NO    F
5        CCCC(O)C(CC)CO (centres undefined)    F
6                            O=C(O)c1cccnc1    F
7  CC(O)CN(CCN(CC(C)O)CC(C)O)CC(C)O (centres undefined)    F
8              Nc1ccc(S(=O)(=O)Nc2nccs2)cc1    F

### Prompt What outcome does the record of this test show for O=c1ccc2ccccc2o1 ?
### Response F

### Prompt Could you kindly confirm the outcome this assay logged for O=C(O)c1cc(N=Nc2ccc(S(=O)(=O)Nc3ccccn3)cc2)ccc1O ?
### Response F

### Prompt Given O=C(O)CCCCC(=O)O , state the outcome it received in this test.
### Response F

### Prompt Entry COc1c2occc2cc2ccc(=O)oc12 : call = ?
### Response F

### Prompt // outcome(item) with item = CC(C)[C@@H]1CC[C@@H](C)C[C@H]1O
### Response F

### Prompt Any idea what this test logged for C1N2CN3CN1CN(C2)C3 ?
### Response F
